Tested on: 110-fold doxorubicin-resistant ovarian cancer (2780/DOX)
assay-comment: in vitro screen against doxorubicin-resistant ovarian cancer
Assay type: cell-based
assay-context: 2780/DOX, in vitro; read-out: IC₅₀
observed-property: IC50 (nM)
Lab book: enter the figure in nM, no units written.

# IC50 lookup, item CO[C@@]12[C@H](COC(N)=O)C3=C(C(=O)C(C)=C(N)C3=O)N1C[C@@H]1N[C@@H]12 [MMC, mitomycin C, reference compound]
200

* * *

System: WiDr human colon cancer
assay-comment: in vitro screen against WiDr colon cancer
Format: cell-based
assay-context: WiDr (WiDr/S), in vitro, read-out: IC₅₀
observed-property: IC50
Phrase the answer as number then unit, nothing more needed.

Suppose we examine the molecule CO[C@@]12[C@H](COC(N)=O)C3=C(C(=O)C(C)=C(N)C3=O)N1C[C@@H]1N[C@@H]12 [MMC, mitomycin C, reference compound] ; what IC50 value has been reported?
20 nM
